Tested on: human hepatocyte growth factor receptor mRNA
Assay: Inhibition of human hepatocyte growth factor receptor mRNA levels in T-24 cells, quantitative real-time PCR; note: test concentration or dose not given here
Conditions: averages from three experiments
Strand notation (5' to 3'): a small letter for the sugar, then the base; units joined by * are phosphorothioate-linked, units joined directly phosphodiester-linked; [ ] holds rarer units or linkages, { } end groups; capitals alone tell only the bases. e = 2'-O-(2-methoxyethyl) (MOE); [5mC] = 5-methylcytosine; d = 2'-deoxy (DNA)
Measurement kind: % INHIB (inhibition of human hepatocyte growth factor receptor mRNA levels) (%)
Numbers only, in %.

Look over these answered cases.
Substance	Number
155121 (antisense eT*eG*eA*eA*eA*dG*dG*dA*d[5mC]*dT*dT*dT*dG*dG*d[5mC]*eT*e[5mC]*e[5mC]*e[5mC]*eA) [compound 155121]	79
209543 (antisense eG*eA*eT*eG*e[5mC]*d[5mC]*dA*d[5mC]*d[5mC]*dG*dT*dG*d[5mC]*dA*d[5mC]*eT*eG*eT*eG*e[5mC]) [compound 209543]	85
155112 (antisense eT*eA*eG*eG*eA*dG*dT*d[5mC]*dT*dT*d[5mC]*dT*d[5mC]*d[5mC]*d[5mC]*eT*eT*eG*e[5mC]*eA) [compound 155112]	81

For each entry beneath this line, provide reported % INHIB (inhibition of human hepatocyte growth factor receptor mRNA levels).
1. 209546 (antisense eA*eA*eT*eT*e[5mC]*dA*dA*dG*dT*dT*dT*dT*dG*dG*dA*e[5mC]*eT*e[5mC]*e[5mC]*eA) [compound 209546]
2. 209527 (antisense e[5mC]*eG*e[5mC]*eT*eT*d[5mC]*dA*d[5mC]*dA*dG*d[5mC]*d[5mC]*dT*dG*dA*eT*eG*eA*eA*eT) [compound 209527]
3. 209547 (antisense eT*e[5mC]*e[5mC]*eT*eG*d[5mC]*dT*dT*d[5mC]*dA*dA*dT*dT*dT*d[5mC]*e[5mC]*e[5mC]*eA*eT*eA) [compound 209547]

Response line:
[76, 81, 84]

For each entry beneath this line, provide reported % INHIB (inhibition of human hepatocyte growth factor receptor mRNA levels).
1. 209535 (antisense eA*eT*eA*eA*e[5mC]*dA*dA*dT*dA*d[5mC]*dA*dA*dG*dT*d[5mC]*e[5mC]*eT*eA*eT*eG) [compound 209535]
2. 209553 (antisense e[5mC]*eG*e[5mC]*e[5mC]*e[5mC]*dA*d[5mC]*dG*dA*d[5mC]*dA*dA*dG*dG*dT*eG*eA*eA*eA*e[5mC]) [compound 209553]

Response line:
1. 39
2. 0

For each entry beneath this line, provide reported % INHIB (inhibition of human hepatocyte growth factor receptor mRNA levels).
1. 155100 (antisense eA*eG*e[5mC]*eT*eG*dA*dT*dA*d[5mC]*dT*dT*d[5mC]*dA*dT*dA*eT*eT*e[5mC]*eA*e[5mC]) [compound 155100]
2. 209528 (antisense eT*eT*eG*eG*eG*dA*dA*dA*dA*d[5mC]*d[5mC]*dT*dT*dG*dT*eA*eG*eA*eT*eT) [compound 209528]
3. 155115 (antisense eA*eG*eT*eT*e[5mC]*d[5mC]*dT*dT*d[5mC]*d[5mC]*dT*dG*d[5mC]*dT*dT*e[5mC]*eA*eT*eG*e[5mC]) [compound 155115]
4. 209526 (antisense eT*eT*eG*eA*eT*dA*dG*dG*dG*dA*dA*dT*dG*d[5mC]*dA*e[5mC]*eA*e[5mC]*eA*eT) [compound 209526]
5. 155132 (antisense eG*eA*eT*eT*e[5mC]*d[5mC]*d[5mC]*dT*d[5mC]*dG*dG*dT*d[5mC]*dA*dG*eA*eA*eA*eT*eT) [compound 155132]

Response line:
1. 0
2. 42
3. 89
4. 93
5. 39

This collection of values is drawn from patent US20040102622A1.
